Cited source for all entries: patent US6960646B2

Endpoint: pIC50. System: hMC-4R (Homo sapiens). Items follow.
Sequence (P32245 whole entry): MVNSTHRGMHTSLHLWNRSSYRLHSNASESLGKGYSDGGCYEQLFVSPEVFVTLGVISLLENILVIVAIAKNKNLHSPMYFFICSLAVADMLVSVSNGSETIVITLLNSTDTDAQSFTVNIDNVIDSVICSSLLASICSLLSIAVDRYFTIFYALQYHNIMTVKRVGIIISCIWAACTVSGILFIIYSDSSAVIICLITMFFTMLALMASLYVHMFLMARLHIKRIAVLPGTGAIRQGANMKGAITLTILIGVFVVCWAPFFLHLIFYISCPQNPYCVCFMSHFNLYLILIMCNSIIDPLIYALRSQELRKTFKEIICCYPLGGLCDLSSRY
Starred links: 1 amine or outer side, 2 acyl side, 3 side chain; linkers in the order of their positions; H or OH if unused. Positions of bridges follow the written chain, without caps; N, C: chain ends. Non-standard residues stand in square brackets, D forms with d. Residues, ends and D or L forms follow the SMILES beside them. ξ: configuration not given here. dPhe(4-Cl) = N[C@H](Cc1ccc(Cl)cc1)C(=O)O; 2Nal = N[C@@H](Cc1ccc2ccccc2c1)C(=O)O; Suc = O=C(CCC(=O)[*:2])[*:1]; ξE = NC(CCC(=O)O)C(=O)O; ξDab = NCCC(N)C(=O)O; ξK = NCCCCC(N)C(=O)O; ξDap = NCC(N)C(=O)O; Ava = NCCCCC(=O)O; GABA = NCCCC(=O)O
Remember the convention: pIC50 equals -log10 of concentration in molar.

Prompt line: Quick one: pIC50 of N=C(N)NCCC[C@@H]1NC(=O)[C@@H](Cc2ccccc2)NC(=O)[C@H](Cc2c[nH]cn2)NC(=O)CCC(=O)NCCCCC(C(N)=O)NC(=O)[C@H](Cc2ccc3ccccc3c2)NC1=O (some centres unmarked) [Example 5] (H[dF]R[2Nal][ξK]-NH2; linker N-5 via Suc) ?
Response line: 7.89

Prompt line: Note, next up: N=C(N)NCCC[C@@H]1NC(=O)[C@@H](Cc2ccccc2)NC(=O)[C@H](Cc2c[nH]cn2)NC(=O)CCC(=O)NCCCCC(C(N)=O)NC(=O)[C@H](Cc2c[nH]c3ccccc23)NC1=O (some centres unmarked) [Example 1] (H[dF]RW[ξK]-NH2; linker N-5 via Suc)
Response line: 7.60

Prompt line: Note, next up: N=C(N)NCCC[C@@H]1NC(=O)[C@@H](Cc2ccccc2)NC(=O)[C@H](Cc2c[nH]cn2)NC(=O)CCC(=O)NCC(C(N)=O)NC(=O)[C@H](Cc2c[nH]c3ccccc23)NC1=O (some centres unmarked) [Example 3] (H[dF]RW[ξDap]-NH2; linker N-5 via Suc)
Response line: 7.15

Prompt line: Note, next up: N=C(N)NCCC[C@@H]1NC(=O)[C@@H](Cc2ccccc2)NC(=O)[C@H](Cc2c[nH]cn2)NC(=O)CCCCNC(=O)CCC(C(N)=O)NC(=O)[C@H](Cc2c[nH]c3ccccc23)NC1=O (some centres unmarked) [Example 6] ([Ava]H[dF]RW[ξE]-NH2; lactam N-6)
Response line: 7.92

Prompt line: Note, next up: N=C(N)NCCC[C@@H]1NC(=O)[C@@H](Cc2ccccc2)NC(=O)[C@H](Cc2c[nH]cn2)NC(=O)CCCNC(=O)CCC(C(N)=O)NC(=O)[C@H](Cc2c[nH]c3ccccc23)NC1=O (some centres unmarked) [Example 7] ([GABA]H[dF]RW[ξE]-NH2; lactam N-6)
Response line: 7.39

Prompt line: Note, next up: N=C(N)NCCC[C@@H]1NC(=O)[C@@H](Cc2ccc(Cl)cc2)NC(=O)[C@H](Cc2c[nH]cn2)NC(=O)CCC(=O)NCCCCC(C(N)=O)NC(=O)[C@H](Cc2c[nH]c3ccccc23)NC1=O (some centres unmarked) [Example 4] (H[dPhe(4-Cl)]RW[ξK]-NH2; linker N-5 via Suc)
Response line: 8.77

Prompt line: Note, next up: N=C(N)NCCC[C@@H]1NC(=O)[C@@H](Cc2ccccc2)NC(=O)[C@H](Cc2c[nH]cn2)NC(=O)CNC(=O)CCC(C(N)=O)NC(=O)[C@H](Cc2c[nH]c3ccccc23)NC1=O (some centres unmarked) [Example 9] (GH[dF]RW[ξE]-NH2; lactam N-6)
Response line: 6.54

Prompt line: Note, next up: N=C(N)NCCC[C@@H]1NC(=O)[C@@H](Cc2ccccc2)NC(=O)[C@H](Cc2c[nH]cn2)NC(=O)CCC(=O)NCCC(C(N)=O)NC(=O)[C@H](Cc2c[nH]c3ccccc23)NC1=O (some centres unmarked) [Example 2] (H[dF]RW[ξDab]-NH2; linker N-5 via Suc)
Response line: 7.46
